These entries and their values trace back to patent EP4660184A1.

Reported pIC50 values for the following compounds.
# testedSystem: human sodium channels Nav 1.7 (Homo sapiens)
# Construct: expressed in transfected cells
# Sequence (Q15858 whole entry): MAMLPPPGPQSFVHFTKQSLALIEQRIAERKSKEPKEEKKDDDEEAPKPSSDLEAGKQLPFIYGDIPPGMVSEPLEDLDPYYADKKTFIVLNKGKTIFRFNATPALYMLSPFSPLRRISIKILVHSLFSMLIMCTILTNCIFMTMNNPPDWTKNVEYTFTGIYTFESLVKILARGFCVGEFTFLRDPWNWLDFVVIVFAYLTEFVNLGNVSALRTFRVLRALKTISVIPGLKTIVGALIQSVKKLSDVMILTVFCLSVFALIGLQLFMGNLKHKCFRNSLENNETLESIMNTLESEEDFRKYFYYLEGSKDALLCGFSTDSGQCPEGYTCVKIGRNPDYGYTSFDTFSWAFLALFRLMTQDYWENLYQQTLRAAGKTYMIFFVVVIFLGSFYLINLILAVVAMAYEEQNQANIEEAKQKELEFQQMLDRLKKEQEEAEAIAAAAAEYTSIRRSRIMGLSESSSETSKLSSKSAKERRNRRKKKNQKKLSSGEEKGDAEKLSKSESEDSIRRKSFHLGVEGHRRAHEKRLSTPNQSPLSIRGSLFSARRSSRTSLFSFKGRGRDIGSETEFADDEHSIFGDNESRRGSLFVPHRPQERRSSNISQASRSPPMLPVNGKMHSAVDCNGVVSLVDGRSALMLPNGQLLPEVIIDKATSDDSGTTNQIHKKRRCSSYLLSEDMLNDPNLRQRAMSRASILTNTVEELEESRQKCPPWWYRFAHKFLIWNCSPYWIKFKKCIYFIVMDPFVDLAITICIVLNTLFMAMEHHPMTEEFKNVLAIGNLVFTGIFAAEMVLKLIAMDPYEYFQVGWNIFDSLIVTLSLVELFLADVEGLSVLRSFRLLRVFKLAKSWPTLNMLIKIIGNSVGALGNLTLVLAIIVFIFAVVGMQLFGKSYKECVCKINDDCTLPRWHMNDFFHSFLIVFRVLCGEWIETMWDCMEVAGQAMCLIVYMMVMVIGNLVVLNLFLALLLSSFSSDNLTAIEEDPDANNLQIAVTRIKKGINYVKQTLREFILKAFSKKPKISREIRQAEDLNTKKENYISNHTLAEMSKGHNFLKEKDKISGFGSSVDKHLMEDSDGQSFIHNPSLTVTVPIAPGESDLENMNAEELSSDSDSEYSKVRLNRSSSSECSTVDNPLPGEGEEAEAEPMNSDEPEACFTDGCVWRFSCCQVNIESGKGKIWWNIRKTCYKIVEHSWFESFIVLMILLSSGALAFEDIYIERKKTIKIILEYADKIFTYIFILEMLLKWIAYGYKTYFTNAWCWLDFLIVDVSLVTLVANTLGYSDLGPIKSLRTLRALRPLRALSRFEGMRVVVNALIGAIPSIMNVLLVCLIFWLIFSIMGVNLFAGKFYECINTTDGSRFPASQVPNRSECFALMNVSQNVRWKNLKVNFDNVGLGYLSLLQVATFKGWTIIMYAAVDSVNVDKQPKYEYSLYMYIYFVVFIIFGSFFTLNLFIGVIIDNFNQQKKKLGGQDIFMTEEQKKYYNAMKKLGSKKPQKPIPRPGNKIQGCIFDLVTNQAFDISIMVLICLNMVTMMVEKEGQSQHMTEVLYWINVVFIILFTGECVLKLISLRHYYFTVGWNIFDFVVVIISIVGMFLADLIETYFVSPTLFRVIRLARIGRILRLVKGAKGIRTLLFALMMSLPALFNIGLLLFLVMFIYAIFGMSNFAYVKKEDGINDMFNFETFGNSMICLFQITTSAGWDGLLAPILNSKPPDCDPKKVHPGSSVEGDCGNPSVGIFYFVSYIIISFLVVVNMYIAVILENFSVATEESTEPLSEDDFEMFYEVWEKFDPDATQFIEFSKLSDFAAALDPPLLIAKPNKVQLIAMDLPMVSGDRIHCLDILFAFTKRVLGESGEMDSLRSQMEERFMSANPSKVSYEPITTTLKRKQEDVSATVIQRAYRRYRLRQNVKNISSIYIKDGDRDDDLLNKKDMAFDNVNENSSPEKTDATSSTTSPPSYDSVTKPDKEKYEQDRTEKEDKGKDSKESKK
# protocolText: Automated whole-cell voltage-clamp (ScreenPatch 384P) sodium current block, Nav 1.7
# Assay type: cell-based
# studyConditions: CHO cells stably expressing human Nav 1.7; inactivation step -40 mV for 8 seconds, test step 0 mV (TP1A); exposure at least five minutes; room temperature; mean if two or more assays; read-out: Nav1.7 IC50
pIC50: −log10 of the molar value.

Input line: pIC50 for CCOc1ccc(-c2cncc(C(=O)NOCc3ccccc3F)n2)cn1 [Compound 32] ?
Output line: < 6.00

New cases:
Input line: pIC50 for CCOc1ccc(-c2cncc(C(=O)NOCc3cccc(OC)c3)n2)cn1 [Compound 33] ?
Output line: < 6.00

Input line: CCOc1ccc(-c2cncc(C(=O)NOCc3ccccc3F)n2)cc1 [Compound 4] ?
Output line: 6.00 to 6.30

Input line: [2H]C([2H])(C)Oc1ccc(-c2cncc(C(=O)NOCc3cc(OC)ccc3F)n2)cn1 [Compound 50] ?
Output line: < 6.00
